Below, each entry is listed alongside its reported pH.
- Test details: pH of 1 mg/ml EDTA or analogue in water or phosphate buffer
- Assay type: physicochemical
- Condition label: 1 mg/ml in d-water; 21.8-22 °C
Keep the answer to the number alone.

O=C([O-])CN(CCN(CC(=O)[O-])CC(=O)O)CC(=O)[O-].[Na+].[Na+].[Na+] [EDTA tri sodium, trisodium edetate] | 9.21

Dear colleague, I am looking for the recorded pH of the following compound: O=C([O-])CN(CCN(CC(=O)[O-])CC(=O)O)CC(=O)O.[Na+].[Na+] [EDTA•2Na•2H2O, disodium edetate] 6.42

Dear colleague, I am looking for the recorded pH of the following compound: O=C([O-])CN(CCN(CC(=O)[O-])CC(=O)[O-])CC(=O)[O-].[Na+].[Na+].[Na+].[Na+] [EDTA•4Na•xH2O, tetrasodium edetate] 9.61

Dear colleague, I am looking for the recorded pH of the following compound: `O=C([O-])CN(CCN(CC(=O)O)CC(=O)O)CC(=O)[O-].[K+].[K+]` 6.25

###

- Test details: pH of 1 mg/ml EDTA or analogue in water or phosphate buffer
- Assay type: physicochemical
- Condition label: 1 mg/ml in 0.01M pH 7.4 phosphate buffer; 21.8-22.3 °C
Attribute measured: pH
Keep the answer to the number alone.

O=C([O-])CN(CCN(CC(=O)O)CC(=O)O)CC(=O)[O-].[K+].[K+] | 6.93
O=C([O-])CN(CCN(CC(=O)[O-])CC(=O)O)CC(=O)[O-].[Na+].[Na+].[Na+] [EDTA tri sodium, trisodium edetate] | 7.77
O=C([O-])CN(CCN(CC(=O)[O-])CC(=O)O)CC(=O)O.[Na+].[Na+] [EDTA•2Na•2H2O, disodium edetate] | 6.92

Consider the record given below.
Dear colleague, I am looking for the recorded pH of the following compound: O=C([O-])CN(CCN(CC(=O)[O-])CC(=O)[O-])CC(=O)[O-].[Na+].[Na+].[Na+].[Na+] [EDTA•4Na•xH2O, tetrasodium edetate] 8.27
